What solubility kinetic was measured for each of the following?
- procedure.summary: Kinetic solubility of compound at pH 4.5
- Format: physicochemical
- condition.info: buffer, read-out: Kinetic_solubility
Answers are plain numbers, in µM.

Please supply solubility kinetic for each of the following items, keeping them in order.
1. Cc1ccc(C(=O)Nc2ccc(Oc3cc4cnn(C)c4cc3-c3cn[nH]c3)c(F)c2)c(=O)n1-c1ccc(F)cc1
2. COc1cc2nccc(Oc3c(F)cc(NC(=O)c4cnccc4OC)cc3F)c2cc1OC
3. COc1cc2nccc(Oc3ccc(NC(=O)c4ccccc4OC)cc3F)c2cc1OC

1. 0.08
2. 5.4
3. 1
